Attribution: PubChem BioAssay (NCI)

tested on: SW-620 colon; assay: NCI-60 one-dose screen, 48 h (100 = growth as untreated, 0 = no growth, -100 = all killed); conditions: 10 µM unless noted
Compounds without any hit were thinned out: in the full panel of roughly 83,000, 20% have a hit.
MEASUREMENT LABEL: growth (%)
The reply should contain only the number, in %.

These recorded examples may help you get a feel for the data.
COc1cccc(-c2nn(-c3ccccc3)cc2-c2ccnc(NCCCNS(=O)(=O)c3ccccc3)c2)c1 = 46.5
CCc1nnc(NC(=O)c2ccoc2COc2ccccc2)s1 = 24
C=C(C)[C@@H]1CC[C@]2(CN)CC[C@]3(C)[C@H](CC[C@@H]4[C@@](C)(CCCN)[C@H](C(=C)C)CC[C@]43C)[C@@H]12 = 88.9
C#Cc1cc2c(N)c(C(=O)c3cc(OC)c(OC)c(OC)c3)[nH]c2cc1OC = 18.4
c1cc(N2CCCC2)c2nc(-c3[nH]ncc3Nc3ncnc4[nH]ccc34)[nH]c2c1 = 2.01
CC(=O)c1c(C)[nH]c(-c2nc3ccc(N4CCN(C)CC4)cc3[nH]2)c1-c1ccc(N(C)C)cc1 = 56.8

// growth value for CC(C)=CCC/C(C)=C/CC/C(C)=C/CSC[C@H](NC(=O)CCCCCN1CCN(C)CC1)C(=O)NC1CCCCCC1 : -22.1

// growth value for COc1ccc2nc(-c3cc(-c4cc(OC)c(OC)c(OC)c4)n[nH]3)[nH]c2c1 : 21

// growth value for COc1ccc2c(c1)c(-c1nc(-c3c[nH]c4ncccc34)cs1)cn2C : 83.3

----------
system: U251 CNS; test: NCI-60 one-dose screen, 48 h; conditions: 10 µM unless noted
This is part of a sample that, as a whole, favours compounds with a hit. Of some 83,000 tested, about 20% had one in any assay. Calls of active or inactive are those of the source. Rule for the calls: active = growth percent below 10; inactive = the rest.
Reply using exactly one outcome from active, inactive

These recorded examples may help you get a feel for the data.
CN1CCN(CCOc2ccc(-c3cnc4c(-c5ccccc5F)cnn4c3)cc2)CC1 = active
Cn1c(=O)c2c(nc(Br)n2CC(=O)Nc2ccc(F)cc2)n(C)c1=O = inactive
Cn1cc(-c2nc(-c3c[nH]c4ncccc34)cs2)c2cc(Cl)ccc21 = inactive
O=c1c(CNc2ccc(S(=O)(=O)Nc3nccs3)cc2)coc2ccccc12 = inactive
COC(=O)[C@]12CC[C@@H](C)[C@H](C)[C@@H]1C1=CC(=O)[C@@H]3[C@@]4(C)C[C@@H](O)[C@H](O)[C@@]5(C)COC(=C45)C[C@@]3(C)[C@]1(C)CC2 = inactive
COc1ccc(C(=O)c2cc(OC)c(OC)c(OC)c2)cc1/C=C/C(=O)c1cc(OC)c(OC)c(OC)c1 = inactive
CC(=O)n1c(/C(C#N)=C/c2ccc(N(C)C)cc2)cc2ccccc21 = inactive

(Q) Which result was noted for this molecule in the test: CCCCCCCC(=O)SCC/C=C/[C@@H]1CC(=O)NCc2cccc(n2)CN(Cc2ccc3ccccc3c2)CC(=O)N[C@@H](C(C)C)C(=O)O1
(A) inactive

----------
tested on: SW-620 colon; assay: NCI-60 one-dose screen, 48 h (100 = growth as untreated, 0 = no growth, -100 = all killed); conditions: 10 µM unless noted
The panel holds about 83,000 compounds, 20% with a hit somewhere; the sample as a whole holds those more often.
MEASUREMENT LABEL: growth (%)
The reply should contain only the number, in %.

These recorded examples may help you get a feel for the data.
O=C1/C(=C\C(Cl)=C/c2ccc([N+](=O)[O-])cc2)SC(=S)N1CCc1ccc(O)cc1 = -30.1
Nc1nc(N)c2nc3c(nc2n1)CCCCCCCCCC3 = 34.3
C=C(C)[C@@H]1CC[C@]2(c3nnc(-c4ccncc4)o3)CC[C@]3(C)[C@H](CC[C@@H]4[C@@]5(C)CCC(=O)NC(C)(C)[C@@H]5CC[C@]43C)[C@@H]12 = 103

Next up:
// growth value for c1ccc2[nH]c(-c3ccc(Nc4nc(N5CCCCC5)nc(N5CCOCC5)n4)cc3)nc2c1 : 5.3
